Below: compounds with pIC50 recorded for Aromatase (Homo sapiens) in separate published works.
pIC50: −log10 of the molar value.

Known pIC50 results, listed for orientation:
INSERT INTO assay_data (smiles_structure, assayed_target, property, observed) VALUES
  ('COc1cc(OC)c2[nH]c(=O)cc(C)c2c1', 'Aromatase (Homo sapiens)', 'pIC50', '< 4.04'),
  ('CC(C)(O)[C@@H]1Cc2cc3ccc(=O)oc3cc2O1', 'Aromatase (Homo sapiens)', 'pIC50', '< 3.79');

What pIC50 appears in the records for this compound with Aromatase (Homo sapiens)? COc1ccc(CCCc2ccc(O)c(OC)c2)c(OC)c1 < 3.88

Try this compound next: Fc1cc2c(cc1-c1cccnc1)CCc1nncn1-2 < 5.00
